target: FRMPD2_1, Q68DX3; assay: holdup assay; parameters: key: below the threshold = too weak to quantify, mostly under pKd 3.1 to 4; settings: plain residues with an end cap or a label only (N-terminal biotin on a linker: ado-ado)
Sequence (Q68DX3 770-861): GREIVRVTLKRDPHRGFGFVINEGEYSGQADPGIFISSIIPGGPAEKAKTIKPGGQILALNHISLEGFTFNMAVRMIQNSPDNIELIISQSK
recorded.endpoint: pKd

Recorded results for 6 binders are shown here.
* NVYGIESVKI [GRIA2, P42262] | 3.56
* DTKNYKQTSV [CRIPT, Q9P021] | below the threshold
* STKRKLASAV [NCF1, P14598] | below the threshold
* PSVGSKKTVL [REELD1, A0A1B0GV85] | below the threshold
* PYSESDDDWC [CACNA1A, O00555] | below the threshold
* TGLWKHETTV [ADGRA3, Q8IWK6] | below the threshold

Could you share which pKd value was measured for KKMLQRRTLL [OR8G1, Q15617] ?
below the threshold

Could you share which pKd value was measured for SFISKKEWYV [NECTIN1, Q15223] ?
4.22

Could you share which pKd value was measured for RDPPAEWTRV [PTPN18, Q99952] ?
below the threshold

Values were extracted from paper PMC9482650.
